molecular target: IGF-1R (Homo sapiens); construct: purchased Millipore 14-802; assay: In vitro IGF-1R enzymatic assay (ADP-Glo kinase assay); assay type: biochemical; details: activated IGF-1R, 30 nM, average
Sequence (P08069 31-1367): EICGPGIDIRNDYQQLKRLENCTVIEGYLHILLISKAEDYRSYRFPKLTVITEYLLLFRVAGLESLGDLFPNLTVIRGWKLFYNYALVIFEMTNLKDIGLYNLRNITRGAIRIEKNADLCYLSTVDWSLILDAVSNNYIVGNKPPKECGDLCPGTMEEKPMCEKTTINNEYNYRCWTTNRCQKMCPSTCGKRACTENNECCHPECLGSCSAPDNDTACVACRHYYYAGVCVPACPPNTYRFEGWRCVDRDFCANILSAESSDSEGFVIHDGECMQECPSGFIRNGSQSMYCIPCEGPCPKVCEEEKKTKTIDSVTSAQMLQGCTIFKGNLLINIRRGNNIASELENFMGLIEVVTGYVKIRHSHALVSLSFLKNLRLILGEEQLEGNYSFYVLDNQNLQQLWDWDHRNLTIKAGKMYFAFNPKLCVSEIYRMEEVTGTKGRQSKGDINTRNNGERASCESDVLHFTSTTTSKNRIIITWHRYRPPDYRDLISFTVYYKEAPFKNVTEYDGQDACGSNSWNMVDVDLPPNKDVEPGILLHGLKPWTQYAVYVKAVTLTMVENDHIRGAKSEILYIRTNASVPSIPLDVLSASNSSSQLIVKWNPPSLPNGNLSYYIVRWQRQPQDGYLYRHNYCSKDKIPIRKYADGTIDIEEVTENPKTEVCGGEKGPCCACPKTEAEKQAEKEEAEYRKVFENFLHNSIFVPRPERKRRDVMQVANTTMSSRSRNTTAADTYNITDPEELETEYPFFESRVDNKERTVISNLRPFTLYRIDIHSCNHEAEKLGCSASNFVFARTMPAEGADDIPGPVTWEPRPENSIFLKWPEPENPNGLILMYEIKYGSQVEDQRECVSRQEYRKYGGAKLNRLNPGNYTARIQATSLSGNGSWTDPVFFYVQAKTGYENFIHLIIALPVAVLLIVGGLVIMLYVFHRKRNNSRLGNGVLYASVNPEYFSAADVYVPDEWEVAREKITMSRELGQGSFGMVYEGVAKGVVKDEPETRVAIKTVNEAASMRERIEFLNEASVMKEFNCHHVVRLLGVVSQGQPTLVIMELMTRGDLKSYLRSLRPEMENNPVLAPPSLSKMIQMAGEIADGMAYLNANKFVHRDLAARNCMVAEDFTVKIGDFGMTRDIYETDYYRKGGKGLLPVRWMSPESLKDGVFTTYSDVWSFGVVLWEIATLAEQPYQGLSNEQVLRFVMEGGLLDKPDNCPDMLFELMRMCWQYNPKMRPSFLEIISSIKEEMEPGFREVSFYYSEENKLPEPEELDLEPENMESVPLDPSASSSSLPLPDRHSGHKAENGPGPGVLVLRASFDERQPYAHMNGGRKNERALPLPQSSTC
Classification field: enter Fulfilled for % Inh @ 30 nM Avg values not below 20%, Not fulfilled for values below it.

>  <Compound>
O=C(Nc1ccc(F)nc1)C1CCCCN1c1nc2c(c(Nc3cc(C4CCCC4)[nH]n3)n1)CCC2 (single isomer, unassigned) [Compound 17b]

>  <Study System>
IGF-1R (Homo sapiens)

>  <Qualitative Label>
Fulfilled

$$$$
>  <Compound>
O=C(Nc1ccc(F)nc1)C1CC(O)CN1c1nc2c(c(Nc3cc(C4CC4)[nH]n3)n1)CCC2 (racemic) [Compound 10a]

>  <Study System>
IGF-1R (Homo sapiens)

>  <Qualitative Label>
Fulfilled

$$$$
>  <Compound>
O=C(Nc1ccc(F)nc1)C1CCCN1c1nc2c(c(Nc3cc(C4CCCC4)[nH]n3)n1)CCCC2 (single isomer, unassigned) [Compound 15b]

>  <Study System>
IGF-1R (Homo sapiens)

>  <Qualitative Label>
Fulfilled

$$$$
>  <Compound>
O=C(Nc1ccc(F)nc1)C1CCCN1c1nc2c(c(Nc3cc(C4CCCC4)[nH]n3)n1)CCC2 (single isomer, unassigned) [Compound 4b]

>  <Study System>
IGF-1R (Homo sapiens)

>  <Qualitative Label>
Fulfilled

$$$$
>  <Compound>
O=C(Nc1ccc(F)nc1)C1C(O)CCN1c1nc2c(c(Nc3cc(C4CC4)[nH]n3)n1)CCC2 (single isomer, unassigned) [Compound 11b]

>  <Study System>
IGF-1R (Homo sapiens)

>  <Qualitative Label>
Not fulfilled

$$$$
>  <Compound>
CNC(=O)C1CCCN1c1nc2c(c(Nc3cc(C(C)C)[nH]n3)n1)CCC2 (single isomer, unassigned) [Compound 19b]

>  <Study System>
IGF-1R (Homo sapiens)

>  <Qualitative Label>
Fulfilled

$$$$
>  <Compound>
O=C(Nc1ccc(F)nc1)C1CC(O)CN1c1nc2c(c(Nc3cc(C4CC4)[nH]n3)n1)CCC2 (racemic) [Compound 10c]

>  <Study System>
IGF-1R (Homo sapiens)

>  <Qualitative Label>
Not fulfilled

$$$$
>  <Compound>
CC(C)c1cc(Nc2nc(N3CCCC3C(N)=O)nc3c2CCC3)n[nH]1 (single isomer, unassigned) [Compound 18a]

>  <Study System>
IGF-1R (Homo sapiens)

>  <Qualitative Label>
Not fulfilled

$$$$
>  <Compound>
CC(C)c1cc(Nc2nc(N3CCCC3C(N)=O)nc3c2CCC3)n[nH]1 (single isomer, unassigned) [Compound 18b]

>  <Study System>
IGF-1R (Homo sapiens)

>  <Qualitative Label>
Fulfilled

$$$$
>  <Compound>
O=C(Nc1ccc(F)nc1)C1CC(O)CN1c1nc2c(c(Nc3cc(C4CC4)[nH]n3)n1)CCC2 (racemic) [Compound 10b]

>  <Study System>
IGF-1R (Homo sapiens)

>  <Qualitative Label>
Not fulfilled

$$$$
>  <Compound>
O=C(Nc1ccc(F)nc1)C1CCCN1c1nc2c(c(Nc3cc(C4CCCC4)[nH]n3)n1)CCC2 (single isomer, unassigned) [Compound 4a]

>  <Study System>
IGF-1R (Homo sapiens)

>  <Qualitative Label>
Not fulfilled

$$$$
>  <Compound>
CC(C)c1cc(Nc2nc(N3CCCCC3C(=O)Nc3ccc(F)nc3)nc3c2CCC3)n[nH]1 (single isomer, unassigned) [Compound 16b]

>  <Study System>
IGF-1R (Homo sapiens)

>  <Qualitative Label>
Fulfilled

$$$$
>  <Compound>
CNC(=O)C1CCCN1c1nc2c(c(Nc3cc(C(C)C)[nH]n3)n1)CCC2 (single isomer, unassigned) [Compound 19a]

>  <Study System>
IGF-1R (Homo sapiens)

>  <Qualitative Label>
Not fulfilled

$$$$
